- Protocol: drug combination growth inhibition, ovarian cancer – cell-based, oncology-focused library, rucaparib conditional, profiling panel (AID 1508598)
- Condition Notes: patient-derived ovarian cancer cells, CellTiter-Glo viability, 144 h; at 0.00122 µM; OCI-P5x cells; without rucaparib; hits give low values
Test Readout: viability (%)
One number for each entry, in %.

- CN(C)Cc1c(C(=O)NCCOc2ccc(C(=O)NO)cc2)oc2ccccc12: 104

For every item below, please supply its viability.
1. COc1ccc(-n2c(SCCCN3C(=O)c4cccc5cccc(c45)C3=O)nnc2-c2ccncc2)cc1
2. CNc1nc(-c2ccc3c(N)n[nH]c3c2)cc(N2C[C@@H](C(=O)NC3CCCCC3)CC[C@H]2C)n1
3. CC(C)[C@H](C(=O)Nc1ccc(C(=O)NO)cc1)c1ccccc1
4. CN1CCN(c2ccc3nc(-c4c(N)c5c(F)cccc5[nH]c4=O)[nH]c3c2)CC1
5. CC(C)(C)c1cnc(CSc2cnc(NC(=O)C3CCNCC3)s2)o1
6. Cc1ccc(F)c(NC(=O)Nc2ccc(-c3cccc4[nH]nc(N)c34)cc2)c1
7. CN(NC(=O)CC(=O)NN(C)C(=S)c1ccccc1)C(=S)c1ccccc1
8. Cn1cc(-c2ccc3nnc(C(F)(F)c4ccc5ncccc5c4)n3n2)cn1

[99.9, 102, 116, 107, 106, 16.8, 75.2, 98.1]

----------
- Protocol: JHH-DIPG-1 glioma cell viability, MIPE5.0 library, CellTiter-Glo luminescence, qHTS (AID 1347067);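 also: cells exposed to compound for 48 hours before readout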
- Condition Notes: JHH-DIPG-1 glioma viability, CellTiter-Glo ATP luminescence
Results filed as inconclusive are left out. Calls of active or inactive are those of the source. The limit is not given here; nearly all actives have AC50 up to about 26 µM.
Form entry, call: pick from t for active, f for inactive

Record excerpt, results attached:
• CNc1nc(C)nc(N[C@H]2CCC[C@@H](C(=O)NCc3ccc(C#N)cc3C(F)(F)F)C2)n1 = f
• CCS(=O)(=O)N1CCC([C@@H](C)n2c(C)c(C(=O)NCc3c(OC)cc(C)[nH]c3=O)c3ccccc32)CC1 = f
• CN1CCN(c2ccc(C(=O)Nc3n[nH]c4ccc(Cc5cc(F)cc(F)c5)cc34)c(NC3CCOCC3)c2)CC1 = t

Which outcome was entered for the compound "O=C(O)[C@H](Cc1c[nH]c2ccccc12)N1C(=O)c2ccccc2C1=O" in this test?
f

----------
Assign viability to each entry below.
- Protocol: drug combination growth inhibition, ovarian cancer – cell-based, oncology-focused library, rucaparib conditional, profiling panel (AID 1508598)
- Condition Notes: patient-derived ovarian cancer cells, CellTiter-Glo viability, 144 h; at 0.0781 µM; OCI-C5x cells; with rucaparib 10 µM; hits give low values; 100% = cells with rucaparib alone
Answers are plain numbers, in %.

Sample records with viability:
- Cc1nc2c(-c3cnc(N)nc3)nc(N3CCOCC3)nc2n1C(C)C: 98.8
- Cn1cnc(=N)c2[nH]cnc21: 107

Please give viability for each item listed below.
1. COc1cc(Nc2ncc(F)c(Nc3ccc4c(n3)NC(=O)C(C)(C)O4)n2)cc(OC)c1OC
2. COc1ccc(C2=NC(c3ccc(Cl)cc3)C(c3ccc(Cl)cc3)N2C(=O)N2CCNC(=O)C2)c(OC(C)C)c1 (centres undefined)
3. O=C(O)CCC1CCC(c2cc(F)ccc2F)(S(=O)(=O)c2ccc(Cl)cc2)CC1 (centres undefined)
4. CC1(C)CCC(c2ccc(Cl)cc2)=C(CN2CCN(c3ccc(C(=O)NS(=O)(=O)c4ccc(N[C@H](CCN5CCOCC5)CSc5ccccc5)c(S(=O)(=O)C(F)(F)F)c4)cc3)CC2)C1
5. CN(C)Cc1ccc(-c2nc3cccc4c3n2CCNC4=O)cc1
6. COc1cc2nccc(Oc3ccc(NC(=O)Nc4cc(C)on4)c(Cl)c3)c2cc1OC

1: 107; 2: 108; 3: 108; 4: 14.8; 5: 112; 6: 113

# input compound: "COc1cc(Nc2ncc3c(n2)-c2ccc(Cl)cc2C(c2c(F)cccc2OC)=NC3)ccc1C(=O)O" ; wanted: its viability
75.5

----------
- Protocol: viability loss in pontine glioma line – cell-based, SU-DIPG-XVII, MIPE5.0, CellTiter-Glo, qHTS, dose response (AID 1347060);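 as to AC50: cells exposed to compound for 48 hours before viability readout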
- Condition Notes: CellTiter-Glo ATP luminescence
Results filed as inconclusive are left out. Calls of active or inactive are those of the source. No cut-off is given here; in the data, nearly all actives have AC50 up to about 26 µM.
Test Readout: AC50

Use the examples below as a reference point.
• COc1cccc(-c2cc(F)ccc2C2Cc3nc(N)nc(C)c3C(=O)N2)n1 (stereo not given) = 0.0295 µM (active)
• Cc1ccc(C(=O)Nc2ccc(CN3CCN(C)CC3)c(C(F)(F)F)c2)cc1C#Cc1cnc2cccnn12 = 0.59 µM (active)
• Cc1nc(NC(=O)N2CCC[C@H]2C(N)=O)sc1-c1ccnc(C(C)(C)C(F)(F)F)c1 = 5.9 µM (active)
• COc1ccc(F)c(F)c1C(=O)c1cnc(NC2CCN(S(C)(=O)=O)CC2)nc1N = 1.86 µM (active)
• O=S(=O)(O)c1ccc2cc(N=Nc3cc(S(=O)(=O)O)c4cccnc4c3O)ccc2c1 = inactive

// batch mode: one AC50 value per listed entry
1. CCCOc1ccn2c(C(C)=O)cc(-c3ccccc3S(C)(=O)=O)c2c1
2. NS(=O)(=O)c1ccc(Cc2c(-c3cccc(-c4ccccc4)c3)nn(-c3nc(C(=O)O)cs3)c2CC2CC2)cc1
3. Cc1ccc2nc(NCCN)c3ncc(C)n3c2c1
4. CC(C)Cc1ccc([C@@H](C)C(=O)NS(C)(=O)=O)cc1
5. CC(=O)Oc1cc2c(s1)CCN(C(C(=O)C1CC1)c1ccccc1F)C2 (stereo not given)

1. inactive
2. 23.5 µM (active)
3. 8.33 µM (active)
4. inactive
5. inactive

----------
- Protocol: viability loss in pontine glioma line – cell-based, SU-DIPG-XIII, MIPE4.0, CellTiter-Glo, qHTS, dose response (AID 1347061);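 also: cells exposed to compound for 48 hours before readout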
- Condition Notes: CellTiter-Glo ATP luminescence
Inconclusive results are not listed. Calls of active or inactive are those of the source. Cut-off not given; nearly all actives show AC50 up to about 37 µM.
Please reply with one of these outcomes: TRUE for active, FALSE for inactive

// known answers, use as guide
* Cc1ccc(NC(=O)Nc2cc(C(F)(F)F)ccc2F)cc1Nc1ccc2c(c1)NC(=O)/C2=C\c1ccc[nH]1 | TRUE
* Nc1ncnc2c1c(-c1cccc(OCc3ccccc3)c1)cn2C1CC(CN2CCCC2)C1 (stereo not drawn) | TRUE

What call does the record list for "NC[C@H]1O[C@H](O[C@@H]2[C@H](O)[C@@H](O[C@H]3O[C@H](CO)[C@@H](O)[C@H](N)[C@H]3O)[C@H](N)C[C@@H]2N)[C@H](O)[C@@H](O)[C@@H]1O" ?
FALSE

----------
- Protocol: drug combination growth inhibition, ovarian cancer – cell-based, oncology-focused library, rucaparib conditional, profiling panel (AID 1508598)
- Condition Notes: patient-derived ovarian cancer cells, CellTiter-Glo viability, 144 h; at 5 µM; OCI-P5x cells; with rucaparib 20 µM; hits give low values; 100% = cells with rucaparib alone
Calls of active or inactive are those of the source.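 How the source made its calls: active means normalized viability below 100% at a tested concentration; inactive means the rest.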
Test Readout: viability

Please review the following examples before continuing.
* CN(C)CC[C@H](CSc1ccccc1)Nc1ccc(S(=O)(=O)NC(=O)c2ccc(N3CCN(Cc4ccccc4-c4ccc(Cl)cc4)CC3)cc2)cc1[N+](=O)[O-] | 9.56% (active)
* Cc1nc(N)sc1-c1ccnc(Nc2ccc(N3CCOCC3)cc2)n1 | 97% (active)
* Cc1csc(-c2nnc(Nc3ccc(Oc4ncccc4-c4ccnc(N)n4)cc3)c3ccccc23)c1 | 58.5% (active)

Quick request: viability for each listed item, please.
1. NC1(c2ccc(-c3nc4ccn5c(=O)[nH]nc5c4cc3-c3ccccc3)cc2)CCC1
2. COC(=O)c1ccc2c(C(=Nc3ccc(N(C)C(=O)CN4CCN(C)CC4)cc3)c3ccccc3)c(O)[nH]c2c1
3. N#CCNC(=O)c1ccc(-c2ccnc(Nc3ccc(N4CCOCC4)cc3)n2)cc1
4. Cc1c(NC(=O)OC[C@@H]2COCCN2)cn2ncnc(Nc3ccc4c(cnn4Cc4cccc(F)c4)c3)c12
5. CC(C)(C)c1cc(NC(=O)Nc2ccc(-c3cn4c(n3)sc3cc(OCCN5CCOCC5)ccc34)cc2)no1
6. O=c1cc(N2CCOCC2)oc2c(-c3cccc4c3sc3ccccc34)cccc12

["104% (inactive)", "51.6% (active)", "46.8% (active)", "92.1% (active)", "31.2% (active)", "49.8% (active)"]

----------
- Protocol: viability loss in pontine glioma line – cell-based, SU-DIPG-XIII, MIPE5.0, CellTiter-Glo, qHTS, dose response (AID 1347064)
- Condition Notes: CellTiter-Glo ATP luminescence
Records with an inconclusive call do not appear. The source made the active and inactive calls. Cut-off not given; nearly all actives show AC50 up to about 23 µM.
Test Readout: outcome

• Cc1cc(-c2ncc(CC(=O)Nc3ccc(-c4cnccn4)cn3)cc2C)ccn1 = inactive
• CN(CCOc1ccc(C[C@H](Nc2ccccc2C(=O)c2ccccc2)C(=O)O)cc1)c1ccccn1 = inactive
• CCN(c1cc(C#CCN2CCOCC2)cc(C(=O)NCc2c(C)cc(C)[nH]c2=O)c1C)C1CCC(N(C)CCOC)CC1 (stereo not drawn) = inactive
